Test system: hedgehog pathway signaling
Assay: Modified Method A: purmorphamine stimulated alkaline phosphatase activity in C3H10T1/2 cells
Assay type: cell-based
Settings: Mus musculus, C3H 10T1/2, compound at 500 nM, 100 nM purmorphamine, 72 hours, read-out: Activity Ranking (percent activity compared to control alkaline phosphatase activity)
Quantity kind: activity at 0.5 µM

Give the measured activity at 0.5 µM of "Cc1nc(-c2ccc(NC(=O)c3ccccc3S(C)(=O)=O)cc2)cs1" .
76 to 100%

GET /values?readout=activity at 0.5 µM&item= "Cc1nc(-c2ccc(NC(=O)c3ccc(Cl)cc3Cl)cc2)cs1"
0 to 25%

Using the record for "COc1ccc(C(=O)Nc2ccc(-c3csc(C)n3)cc2)c(CN2CCOCC2)c1" , report its activity at 0.5 µM.
0 to 25%

Can you look up the measured activity at 0.5 µM of "Cc1nc(-c2ccc(NC(=O)c3ccc(S(C)(=O)=O)cc3Cl)cc2)cs1" for me?
0 to 25%

Item under review: "COc1cc(C(=O)Nc2ccc(-c3csc(C)n3)cc2)cc(OC)c1OC" . Reported activity at 0.5 µM?
51 to 75%

* * *

Test system: hedgehog pathway signaling
Test: Method A: cell differentiation assay, sonic hedgehog stimulated alkaline phosphatase activity
Assay type: cell-based
Settings: Mus musculus, Shh-N 2 μg/mL, 72 hours, C3H10T1/2 or M2-10B4 cells, read-out: IC50 (50% inhibition of sonic hedgehog stimulated alkaline phosphatase activity)
Quantity kind: pIC50
pIC50 field: float, defined as -log10 of concentration (mol/L).

Tell me the measured pIC50 of "Cc1nc(-c2ccc(NC(=O)c3ccc(S(C)(=O)=O)cc3Cl)cc2)cs1" , please.
7.20

* * *

Test system: hedgehog pathway signaling
Assay: Modified Method A: purmorphamine stimulated alkaline phosphatase activity in C3H10T1/2 cells
Assay type: cell-based
Conditions: Mus musculus, C3H 10T1/2, compound at 500 nM, 100 nM purmorphamine, 72 hours, read-out: Activity Ranking (percent activity compared to control alkaline phosphatase activity)
Quantity kind: activity at 0.5 µM

# get_value(readout='activity at 0.5 µM', item= Cc1nc(-c2ccc(NC(=O)c3ccccc3Cl)cc2)cs1 [Example 14] )
0 to 25%

What does the record list as activity at 0.5 µM for COc1ccc(C(=O)Nc2ccc(-c3csc(C)n3)cc2)c(C)c1 [Example 16] ?
0 to 25%

Looking for the measured activity at 0.5 µM of CS(=O)(=O)c1ccc(C(=O)Nc2ccc(-c3cscn3)cc2)c(Cl)c1 [Example 11] , can you help?
26 to 50%

// returns reported activity at 0.5 µM for input Cc1nc(-c2ccc(NC(=O)c3ccc(C#N)cc3)cc2)cs1 [Example 18]
26 to 50%

Look up activity at 0.5 µM: Cc1nc(-c2ccc(N(C)C(=O)c3ccc(S(C)(=O)=O)cc3Cl)cc2)cs1 [Example 9]
76 to 100%

Looking for the measured activity at 0.5 µM of O=C(Nc1ccc(-c2cscn2)cc1)c1ccccc1Cl [Example 10] , can you help?
26 to 50%

Requested read-out: activity at 0.5 µM. Entry: CC(C)(O)c1nc(-c2ccc(NC(=O)c3ccc(S(C)(=O)=O)cc3Cl)cc2)cs1 [Example 12]
26 to 50%

Reported activity at 0.5 µM for CS(=O)(=O)c1ccc(C(=O)Nc2ccc(-c3csc(CO)n3)cc2)c(Cl)c1 [Example 13] : what is it?
51 to 75%

Param item = Cc1nc(-c2ccc(NC(=O)c3ccc(S(C)(=O)=O)cc3Cl)cc2Cl)cs1 [Example 7] ; retrieve measured activity at 0.5 µM.
51 to 75%

activity at 0.5 µM lookup needed for COc1ccc(C(=O)Nc2ccc(-c3csc(C)n3)cc2)c(F)c1 [Example 17] , thanks.
0 to 25%

Can you share its activity at 0.5 µM? I mean this molecule: COc1ccc(C(=O)Nc2ccc(-c3csc(C)n3)cc2)cc1 [Example 3]
0 to 25%

Would you mind telling me what activity at 0.5 µM value was observed for COc1ccc(C(=O)Nc2ccc(-c3csc(C)n3)cc2)c(Cl)c1 [Example 8] ?
0 to 25%

Tell me the measured activity at 0.5 µM of Cc1nc(-c2ccc(NC(=O)c3ccc(S(C)(=O)=O)cc3Cl)cc2)co1 [Example 6] , please.
26 to 50%
